Where do these numbers come from? They come from patent US7576094B2.

Reported pIC50 by item:
Target Or Test System: human recombinant 5-Lipoxygenase (Homo sapiens, UniProt P09917)
Sequence (P09917 whole entry): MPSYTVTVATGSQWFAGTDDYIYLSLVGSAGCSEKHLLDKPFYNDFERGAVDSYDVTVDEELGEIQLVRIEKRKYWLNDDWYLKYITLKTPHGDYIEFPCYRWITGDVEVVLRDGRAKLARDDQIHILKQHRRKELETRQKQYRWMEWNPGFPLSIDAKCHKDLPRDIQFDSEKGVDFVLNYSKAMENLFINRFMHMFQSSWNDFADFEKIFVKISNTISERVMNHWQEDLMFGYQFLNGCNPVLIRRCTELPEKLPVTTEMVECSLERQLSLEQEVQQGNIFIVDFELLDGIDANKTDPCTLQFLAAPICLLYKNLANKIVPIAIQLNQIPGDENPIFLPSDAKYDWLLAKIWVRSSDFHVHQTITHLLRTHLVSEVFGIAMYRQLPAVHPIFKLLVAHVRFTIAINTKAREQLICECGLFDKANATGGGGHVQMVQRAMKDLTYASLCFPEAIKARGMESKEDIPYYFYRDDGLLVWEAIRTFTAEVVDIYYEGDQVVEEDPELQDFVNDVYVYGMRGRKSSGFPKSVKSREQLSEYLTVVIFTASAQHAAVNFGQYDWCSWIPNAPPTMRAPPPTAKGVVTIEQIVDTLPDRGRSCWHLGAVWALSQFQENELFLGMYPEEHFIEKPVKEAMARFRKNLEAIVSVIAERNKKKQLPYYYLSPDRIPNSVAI
Method Notes: 5-Lipoxygenase Enzyme Assay
Condition Info: 70 μM arachidonic acid, 10 minute incubation at room temperature, FOX reagent, absorbance at 620 nm; read-out: inhibition of 5-Lipoxygenase with an IC50
pIC50: −log10 of the molar value.

Q) Given the molecule CCONC1CC2(CCC2)Oc2cc(CC)c(O)c(CC)c21 (stereo not shown) , what is its reported pIC50?
A) > 6.52

---
Q) Request the reported pIC50 associated with COC(=O)C1CC(c2c(C)c(O)c(C)c3c2OC2(CCC2)CC3)=NO1 (stereo not shown)
A) > 6.52

Q) Can you look up the measured pIC50 of "CCCc1ccc([S+](=O)([O-])NCCN2CC3(CCC3)Cc3cc(O)c(C)c(C)c32)cc1" for me?
A) > 6.52

Q) Requested field: pIC50. Item: "Cc1c(O)c(CCC(C)C)c(C)c2c1CCC1(CCC1)O2"
A) > 6.52
